Experimental target: phosphorylated FGFR3 (SEQ ID NO: 5, amino acids 449 to 759) (Homo sapiens (Human), UniProt P22607)
Sequence (P22607 449-759): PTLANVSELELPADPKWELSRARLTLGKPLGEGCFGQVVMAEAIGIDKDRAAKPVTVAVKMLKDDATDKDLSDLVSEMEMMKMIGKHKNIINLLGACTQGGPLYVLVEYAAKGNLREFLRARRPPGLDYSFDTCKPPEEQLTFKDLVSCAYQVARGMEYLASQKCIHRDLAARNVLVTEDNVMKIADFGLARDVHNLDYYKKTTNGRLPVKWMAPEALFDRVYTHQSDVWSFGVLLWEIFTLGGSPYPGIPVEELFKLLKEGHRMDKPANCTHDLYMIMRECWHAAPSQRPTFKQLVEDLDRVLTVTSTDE
Endpoint: log10 IC50 (log10 of the value in nM)
Please note: log10 values; quantity IC50; unit nM.

Please review the entries below; each comes with its answer.
C=CC(=O)N1CC(C(=O)N2CCC3(C2)CN(c2ccc(-c4cc(OC)c5c(C#N)cnn5c4)cn2)C3)C1 [Example 103]; 1.00
C=CC(=O)N1CC(CN2C[C@H]3C[C@@H]2CN3c2ccc(-c3cc(OC)c4c(C#N)cnn4c3)cn2)C1 [Example 108]; 1.04
C=CC(=O)N1CCC2(CC1)CC(C(=O)N1CCC(n3cc(-c4cc(OC)c5c(C#N)cnn5c4)cn3)CC1)C2 [Example 48]; 1.40

Go through the list and state log10 IC50 for each entry.
1. C=CC(=O)N1CCN(C(=O)N2CCC(n3cc(-c4cc(OC)c5c(C#N)cnn5c4)cn3)CC2)CC1 [Example 2]
2. C=CC(=O)N1C[C@H]2CN(C(=O)N3CCC(n4cc(-c5cc(OC)c6c(C#N)cnn6c5)cn4)CC3)C[C@H]21 [Example 7]
3. C=CC(=O)N1CC(OC)(C(=O)N2CCC(n3cc(-c4cc(OC)c5c(Cl)cnn5c4)cn3)CC2)C1 [Example 124]
4. COc1cc(-c2cnn(C3CCN(CC4CN(C(=O)/C=C/CN5CCCCC5)C4)CC3)c2)cn2ncc(C#N)c12 [Example 175]
5. COc1cc(-c2cnn(C3CCN(C(=O)C4(F)CN(C(=O)/C=C/CN(C)C)C4)CC3)c2C)cn2ncc(C#N)c12 [Example 153]
6. C=CC(=O)N1CC(C(=O)N2CCC(n3cc(-c4cc(OC)c5c(C#N)cnn5c4)c(CC)n3)CC2)C1 [Example 97]

0.60
0.95
0.95
0.90
0.30
1.72
